target: Lymphokine-activated killer T-cell-originated protein kinase (Homo sapiens); experiment: Kinase Assay; conditions: pH 7.4; 25 °C
IC50 by entry:
value_type: IC50 (nM)

compound=COc1ccc2[nH]c(=O)c3sccc3c2c1-c1ccc(S(=O)(=O)NCCF)cc1 value_type=IC50 reported_result=31
compound=O=c1[nH]c2ccc(O)c(-c3ccc4cn[nH]c4c3)c2c2ccsc12 value_type=IC50 reported_result=3.5
compound=CS(=O)(=O)NCc1ccc(-c2c(O)ccc3[nH]c(=O)c4sccc4c23)cc1 value_type=IC50 reported_result=5.5
compound=NCC1(c2ccc(-c3c(O)cc(Br)c4[nH]c(=O)c5sccc5c34)cc2)CC1 value_type=IC50 reported_result=51
compound=Cc1cc(O)c(-c2ccc(C(C)(C)CN)c(F)c2)c2c1[nH]c(=O)c1sccc12 value_type=IC50 reported_result=22
compound=CNC[C@@H](C)c1ccc(-c2c(O)cc(C)c3[nH]c(=O)c4sccc4c23)cc1 value_type=IC50 reported_result=60
compound=Cc1cc(O)c(-c2ccc(CCN)c(Cl)c2)c2c1[nH]c(=O)c1sccc12 value_type=IC50 reported_result=3
compound="CCC(CN)c1ccc(-c2c(O)cc(C)c3[nH]c(=O)c4sccc4c23)cc1 (stereo not drawn)" value_type=IC50 reported_result=15

###

target: Lymphokine-activated killer T-cell-originated protein kinase (Homo sapiens, UniProt Q96KB5); assay: Kinase Assay; details: pH 7.4; 25 °C
Sequence (Q96KB5 whole entry): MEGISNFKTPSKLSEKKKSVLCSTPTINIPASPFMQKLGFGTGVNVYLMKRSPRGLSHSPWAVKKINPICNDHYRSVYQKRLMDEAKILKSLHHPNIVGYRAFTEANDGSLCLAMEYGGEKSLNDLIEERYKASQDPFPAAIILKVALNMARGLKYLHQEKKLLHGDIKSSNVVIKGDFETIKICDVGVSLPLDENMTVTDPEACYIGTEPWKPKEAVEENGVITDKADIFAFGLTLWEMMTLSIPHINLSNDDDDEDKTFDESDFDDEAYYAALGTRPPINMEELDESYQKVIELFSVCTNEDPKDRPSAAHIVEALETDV
pIC50: −log10 of the molar value.
Measured pIC50 accompanies every entry in the list below.
value_type: pIC50

molecule=NCC1(c2ccc(-c3c(O)ccc4[nH]c(=O)c5sccc5c34)cc2)CCC1 reported_result=8.77
molecule=NCc1ccc(-c2c(O)cc(Cl)c3[nH]c(=O)c4sccc4c23)cc1 reported_result=7.80
molecule=COc1cc(C)c2[nH]c(=O)c3sc(Cl)cc3c2c1-c1ccc([C@@H](C)CN)cc1 reported_result=7.96
molecule="O=c1[nH]c2ccc(O)c(-c3ccc(CN4CCC(O)C4)c(F)c3)c2c2ccsc12 (stereo not drawn)" reported_result=9.01
molecule="CC(c1ccc(-c2c(O)ccc3[nH]c(=O)c4sccc4c23)cc1)N1CCCCC1 (stereo not drawn)" reported_result=8.37
molecule=Cc1cc(O)c(-c2ccc(C3(CN)CC3)cc2)c2c1[nH]c(=O)c1sccc12 reported_result=8.02
molecule=Cc1cc(O)c(-c2ccc([C@@H](C)CN)cc2)c2c1[nH]c(=O)c1sc(F)cc12 reported_result=8.43
molecule="COc1ccc2[nH]c(=O)c3sccc3c2c1-c1ccc(C(C)N2CCCC2)cc1 (stereo not drawn)" reported_result=7.68

###

biological target: Lymphokine-activated killer T-cell-originated protein kinase (Homo sapiens); assay: Kinase Assay; conditions: pH 7.4; 25 °C
# Lookup of reported log10(IC50) keyed by entry
value_type: log10(IC50) (log10 of the value in nM)

compound=N#CCc1ccc(-c2c(O)ccc3[nH]c(=O)c4sccc4c23)cc1F value_type=log10(IC50) reported_result=1.18
compound=CN(C)Cc1ccc(-c2c(O)ccc3[nH]c(=O)c4sccc4c23)cc1 value_type=log10(IC50) reported_result=0.84
compound=COc1cc(F)c2[nH]c(=O)c3sccc3c2c1-c1ccc(CN)cc1 value_type=log10(IC50) reported_result=1.41
compound=CC(C)NCc1ccc(-c2c(O)ccc3[nH]c(=O)c4sccc4c23)cc1 value_type=log10(IC50) reported_result=0.62
compound=CC[C@@H](c1ccc(-c2c(O)ccc3[nH]c(=O)c4sccc4c23)cc1)N(C)C value_type=log10(IC50) reported_result=0.34
compound=NS(=O)(=O)c1ccc(-c2c(O)ccc3[nH]c(=O)c4sccc4c23)cc1 value_type=log10(IC50) reported_result=0.26
compound=O=c1[nH]c2ccc(O)c(C3=CCNCC3)c2c2ccsc12 value_type=log10(IC50) reported_result=-0.11
compound=CCNCc1ccc(-c2c(OC)ccc3[nH]c(=O)c4sccc4c23)cc1 value_type=log10(IC50) reported_result=0.78
compound=NCCc1cc(Br)c(-c2c(O)ccc3[nH]c(=O)c4sccc4c23)cc1O value_type=log10(IC50) reported_result=0.81
compound=C[C@@H](N)c1ccc(-c2c(O)ccc3[nH]c(=O)c4sccc4c23)cc1 value_type=log10(IC50) reported_result=-0.27
compound=COc1ccc2[nH]c(=O)c3sccc3c2c1-c1ccc([C@H](C)N)cc1 value_type=log10(IC50) reported_result=0.87
compound=NCCCc1ccc(-c2c(O)ccc3[nH]c(=O)c4sccc4c23)cc1 value_type=log10(IC50) reported_result=-0.13
compound=COc1ccc2[nH]c(=O)c3sccc3c2c1-c1ccc([C@@H](C)N)cc1 value_type=log10(IC50) reported_result=0.58
compound=COc1cc(Cl)c2[nH]c(=O)c3sccc3c2c1-c1ccc(CCN)c(F)c1 value_type=log10(IC50) reported_result=1.94
compound=CC(C)(CN)c1ccc(-c2c(O)ccc3[nH]c(=O)c4sccc4c23)cc1 value_type=log10(IC50) reported_result=-0.17
compound=COc1ccc2[nH]c(=O)c3sccc3c2c1/C=C/CN1CCC(N)CC1 value_type=log10(IC50) reported_result=1.49
compound="CCN(CC)C(C)c1ccc(-c2c(O)ccc3[nH]c(=O)c4sccc4c23)cc1 (configuration not stated)" value_type=log10(IC50) reported_result=0.65
